# Na^+ -excretion values compiled below
Tested on: male Wistar rats
Experiment: Diuresis test with individual pteridine compounds, intravenous, urine after 2.5 hours
Type: in vivo
Details: 2.5 μmol/kg i.v.; control 0.83
READOUT_NAME: Na^+ -excretion (mmol/kg)

{"MOLECULE": "CC(C)NCC(O)COc1ccc(-c2nc3c(N)nc(N)nc3nc2N)cc1 (stereo not drawn) [IH]", "RESULT": 2.49}
{"MOLECULE": "Nc1nc(N)c2nc(-c3ccccc3)c(N)nc2n1 [Triamterene, 2,4,7-triamino-6-phenyl-pteridine, reference compound]", "RESULT": 1.17}
{"MOLECULE": "CCCCN(CCCC)CC(O)COc1ccc(-c2nc3c(N)nc(N)nc3nc2N)cc1 (stereo not drawn) [IL]", "RESULT": 2.34}
{"MOLECULE": "Nc1nc(N)c2nc(-c3ccc(OCC(O)CN4CCCCC4)cc3)c(N)nc2n1 (stereo not drawn) [IF]", "RESULT": 1.95}
{"MOLECULE": "Nc1nc(N)c2nc(-c3ccc(OCC(O)CN4CCOCC4)cc3)c(N)nc2n1 (stereo not drawn) [ID]", "RESULT": 2.78}
{"MOLECULE": "Nc1nc(N)c2nc(-c3ccc(OCC(O)CN4CCCC4)cc3)c(N)nc2n1 (stereo not drawn) [IG]", "RESULT": 2.14}
{"MOLECULE": "CNCC(O)COc1ccc(-c2nc3c(N)nc(N)nc3nc2N)cc1 (stereo not drawn) [IC]", "RESULT": 2.63}
{"MOLECULE": "CC(C)N(CC(O)COc1ccc(-c2nc3c(N)nc(N)nc3nc2N)cc1)C(C)C (stereo not drawn) [IK]", "RESULT": 2.08}
{"MOLECULE": "CN(C)CC(O)COc1ccc(-c2nc3c(N)nc(N)nc3nc2N)cc1 (stereo not drawn) [IA]", "RESULT": 2.78}

* * *

System: male Wistar rats
Assay: Diuresis test with individual pteridine compounds, intravenous, urine after 2.5 hours
Format: in vivo
Settings: 2.5 μmol/kg i.v.; control 0.83
READOUT_NAME: Na^+ -excretion (mmol/kg)

{"COMPOUND": "CCCCNCC(O)COc1ccc(-c2nc3c(N)nc(N)nc3nc2N)cc1 (stereo not drawn) [IJ]", "SYSTEM": "male Wistar rats", "RESULT": 2.86}
{"COMPOUND": "CCN(CC)CC(O)COc1ccc(-c2nc3c(N)nc(N)nc3nc2N)cc1 (stereo not drawn) [IE]", "SYSTEM": "male Wistar rats", "RESULT": 2.61}
{"COMPOUND": "CCNCC(O)COc1ccc(-c2nc3c(N)nc(N)nc3nc2N)cc1 (stereo not drawn) [IB]", "SYSTEM": "male Wistar rats", "RESULT": 2.98}
